- System: HCV NS5B polymerase 1a-H77-C316Y
- PROTOCOL_TEXT: biochemical
- Design: species or system HCV genotype 1a
- MEASUREMENT_CONTEXT: ratio of enzyme IC50s, 1a H77-C316Y / 1a H77
- Procedure: Purified HCV NS5B polymerase enzymes were used for polymerase inhibition assays. […] The reaction was initiated by the addition of 20 μM CTP, 20 μM ATP, 0.284 μM (0.5 μCi) of 5,6-[^3H] […] After drying thoroughly in air, 30 μL of Microscint-20 scintillation cocktail (Perkin Elmer) was added to each well, and the retained cpm were determined by scintillation counting. IC50 values were determined by nonlinear regression. […]
The threshold is inclusive: C316Y/1a Fold Resistance of exactly 30 fold counts as Yes; values below receive No.

COMPOUND | ANSWER_LABEL
CC(C)CN(c1cc2oc(-c3ccc(F)cc3)c(-c3ncc[nH]3)c2cc1C1CC1)S(C)(=O)=O [Example 66] | Yes
CS(=O)(=O)N(CC1CC1(F)F)c1cc2oc(-c3ccc(F)cc3)c(-c3ncc[nH]3)c2cc1C1CC1 (centres unmarked) [Example 55] | Yes
CS(=O)(=O)N(CCCc1n[nH]c(=O)o1)c1cc2oc(-c3ccc(F)cc3)c(-c3ncc[nH]3)c2cc1C1CC1 [Example 179] | No
CS(=O)(=O)N(Cc1cc(O)no1)c1cc2oc(-c3ccc(F)cc3)c(-c3ncc[nH]3)c2cc1C1CC1 [Example 190] | Yes
[2H]C([2H])(CCCCC)N(c1cc2oc(-c3ccc(F)cc3)c(-c3ncc[nH]3)c2cc1C1CC1)S(C)(=O)=O [Example 113] | No
CS(=O)(=O)N(CCCO)c1cc2oc(-c3ccc(F)cc3)c(C3=NOCCN3)c2cc1C1CC1 [Example 137] | No
CS(=O)(=O)N(CCCN1CCCCC1)c1cc2oc(-c3ccc(F)cc3)c(C3=NOCCN3)c2cc1C1CC1 [Example 130] | No
CS(=O)(=O)N(CC#N)c1cc2oc(-c3ccc(F)cc3)c(-c3ncc[nH]3)c2cc1C1CC1 [Example 63] | Yes
CC(C)(O)C(O)CN(c1cc2oc(-c3ccc(F)cc3)c(-c3ncc[nH]3)c2cc1C1CC1)S(C)(=O)=O (centres unmarked) [Example 94] | Yes
CCS(=O)(=O)CCN(c1cc2oc(-c3ccc(F)cc3)c(-c3ncc[nH]3)c2cc1C1CC1)S(C)(=O)=O [Example 96] | No
CS(=O)(=O)N(CCN)c1cc2oc(-c3ccc(F)cc3)c(-c3ncc[nH]3)c2cc1C1CC1 [Example 111] | Yes
CNS(=O)(=O)CCCN(c1cc2oc(-c3ccc(F)cc3)c(-c3ncc[nH]3)c2cc1C1CC1)S(C)(=O)=O [Example 86] | No
CS(=O)(=O)N(CCCN1CCOCC1)c1cc2oc(-c3ccc(F)cc3)c(C3=NOCCN3)c2cc1C1CC1 [Example 126] | No
CS(=O)(=O)N(CCCC(=O)N1CCOCC1)c1cc2oc(-c3ccc(F)cc3)c(-c3ncc[nH]3)c2cc1C1CC1 [Example 103] | Yes
CS(=O)(=O)CCCCN(c1cc2oc(-c3ccc(Nc4ccccc4)cc3)c(-c3ncc[nH]3)c2cc1C1CC1)S(C)(=O)=O [Example 169] | No
CSCCN(c1cc2oc(-c3ccc(F)cc3)c(-c3ncc[nH]3)c2cc1C1CC1)S(C)(=O)=O [Example 74] | Yes
CC(C)CCCN(c1cc2oc(-c3ccc(F)cc3)c(-c3ncc[nH]3)c2cc1C1CC1)S(C)(=O)=O [Example 40] | No
CC(O)CN(c1cc2oc(-c3ccc(F)cc3)c(-c3ncc[nH]3)c2cc1C1CC1)S(C)(=O)=O (centres unmarked) [Example 98] | Yes
CS(=O)(=O)N(CCCC(=O)O)c1cc2oc(-c3ccc(F)cc3)c(C3=NOCN3)c2cc1C1CC1 [Example 157] | No
CS(=O)(=O)N(CCCS(N)(=O)=O)c1cc2oc(-c3ccc(F)cc3)c(C3=NOCN3)c2cc1C1CC1 [Example 15] | No
CS(=O)(=O)N(CCCOc1ccccc1)c1cc2oc(-c3ccc(F)cc3)c(-c3ncc[nH]3)c2cc1C1CC1 [Example 37] | No
Cc1cnc(-c2c(-c3ccc(F)cc3)oc3cc(N(CCC(C)C)S(C)(=O)=O)c(C4CC4)cc23)[nH]1 [Example 172] | No
CS(=O)(=O)N(CCCCO)c1cc2oc(-c3ccc(F)cc3)c(C3=NOCCN3)c2cc1C1CC1 [Example 8] | No
CC(C)(C)Oc1ncc(-c2ncc(CN(c3ccc4c(-c5ncc[nH]5)c(-c5ccccc5)oc4c3)S(C)(=O)=O)s2)c(OC(C)(C)C)n1 [Example 27] | No
CS(=O)(=O)CCN(c1cc2oc(-c3ccc(F)cc3)c(C3=NOCCN3)c2cc1C1CC1)S(C)(=O)=O [Example 9] | No
CS(=O)(=O)N(CCCCCO)c1cc2oc(-c3ccc(F)cc3)c(-c3ncc[nH]3)c2cc1C1CC1 [Example 88] | No
COCCCN(c1cc2oc(-c3ccc(F)cc3)c(-c3ncc[nH]3)c2cc1C1CC1)S(C)(=O)=O [Example 69] | Yes
CC(C)CCN(c1cc2oc(-c3ccc(F)cc3)c(-c3ncc[nH]3)c2cc1C1CC1)S(C)(=O)=O [Example 4] | No
CC(C)CCN(c1cc2oc(-c3ccc(F)cc3)c(C3=NOC(C)N3)c2cc1C1CC1)S(C)(=O)=O (centres unmarked) [Example 14] | No

###

- Tested on: HCV 1b-BB7 subgenomic replicon
- PROTOCOL_TEXT: microbe, parasite or virus in culture
- Format: cell-based, HCV genotype 1b
- MEASUREMENT_CONTEXT: Hepatitis C virus, stable replicon, strain 1b BB7, 5% FBS + 40% human plasma; read-out: 1b BB7 5% FBS + 40% Human Plasma EC50
ASSAY_METRIC: EC50 (nM)

COMPOUND | TGT | REPORTED
CS(=O)(=O)N(CCCC(F)(F)F)c1cc2oc(-c3ccc(F)cc3)c(-c3ncc[nH]3)c2cc1C1CC1 | HCV 1b-BB7 subgenomic replicon | 81
CS(=O)(=O)N(CCCN1CCOCC1)c1cc2oc(-c3ccc(F)cc3)c(C3=NOCCN3)c2cc1C1CC1 | HCV 1b-BB7 subgenomic replicon | 379
CC(=O)CCCCN(c1cc2oc(-c3ccc(F)cc3)c(-c3ncc[nH]3)c2cc1C1CC1)S(C)(=O)=O | HCV 1b-BB7 subgenomic replicon | 47
CS(=O)(=O)N(CC1CCNC1)c1cc2oc(-c3ccc(F)cc3)c(-c3ncc[nH]3)c2cc1C1CC1 (stereo not shown) | HCV 1b-BB7 subgenomic replicon | 835
CS(=O)(=O)CCCN(c1cc2oc(-c3ccc(F)cc3)c(-c3ncc[nH]3)c2cc1C1CC1)S(C)(=O)=O | HCV 1b-BB7 subgenomic replicon | 75
CS(=O)(=O)N(CCCc1ccccc1)c1cc2oc(-c3ccc(F)cc3)c(-c3ncc[nH]3)c2cc1C1CC1 | HCV 1b-BB7 subgenomic replicon | 364
CS(=O)(=O)N(CCCC(F)(F)F)c1cc2oc(-c3ccc(F)cc3)c(C3=NOCCN3)c2cc1C1CC1 | HCV 1b-BB7 subgenomic replicon | 245

###

- TGT: HCV NS5B polymerase 1b BK strain (Hepatitis C virus genotype 1b)
- Construct: six-histidine tag; made in house; host or cells: E. coli
- Sequence (P26663 2420-2989): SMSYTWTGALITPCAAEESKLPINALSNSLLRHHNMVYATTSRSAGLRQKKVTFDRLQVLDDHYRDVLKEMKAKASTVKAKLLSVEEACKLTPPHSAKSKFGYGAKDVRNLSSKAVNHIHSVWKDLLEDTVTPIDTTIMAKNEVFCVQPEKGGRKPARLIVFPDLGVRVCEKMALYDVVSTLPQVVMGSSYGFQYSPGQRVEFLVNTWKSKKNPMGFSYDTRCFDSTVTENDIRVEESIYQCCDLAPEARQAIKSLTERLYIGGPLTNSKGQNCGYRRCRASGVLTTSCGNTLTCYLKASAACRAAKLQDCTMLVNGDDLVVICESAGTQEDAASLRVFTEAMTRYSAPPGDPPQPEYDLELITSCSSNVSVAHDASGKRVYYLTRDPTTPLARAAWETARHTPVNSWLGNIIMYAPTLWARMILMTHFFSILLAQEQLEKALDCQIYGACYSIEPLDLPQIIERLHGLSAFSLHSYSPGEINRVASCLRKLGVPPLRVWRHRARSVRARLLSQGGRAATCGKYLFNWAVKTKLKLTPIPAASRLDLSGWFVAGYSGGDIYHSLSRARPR
- PROTOCOL_TEXT: HCV NS5B polymerase enzymatic inhibition assay, strain 1b BK
- Format: biochemical
- MEASUREMENT_CONTEXT: enzyme, strain 1b BK; read-out: HCV Polymerase Strain 1b BK IC50
pIC50: −log10 of the molar value.
Here the recorded pIC50 is given for each entry.

COMPOUND | pIC50
CS(=O)(=O)N(CC1CCCO1)c1cc2oc(-c3ccc(F)cc3)c(-c3ncc[nH]3)c2cc1C1CC1 (centres unmarked) | 7.22
CS(=O)(=O)N(CCCO)c1cc2oc(-c3ccc(F)cc3)c(-c3ncc[nH]3)c2cc1C1CC1 | 7.28
CS(=O)(=O)N(CC1CC1(F)F)c1cc2oc(-c3ccc(F)cc3)c(-c3ncc[nH]3)c2cc1C1CC1 (centres unmarked) | 7.55
CNC(=O)CCCN(c1cc2oc(-c3ccc(F)cc3)c(-c3ncc[nH]3)c2cc1C1CC1)S(C)(=O)=O | 7.55
CC(C)=CCN(c1cc2oc(-c3ccc(F)cc3)c(-c3ncc[nH]3)c2cc1C1CC1)S(C)(=O)=O | 6.53
CS(=O)(=O)N(CCCN1CCOCC1)c1cc2oc(-c3ccc(F)cc3)c(-c3ncc[nH]3)c2cc1C1CC1 | 7.70
CS(=O)(=O)N(CCCO)c1cc2oc(-c3ccc(F)cc3)c(C3=NOCCN3)c2cc1C1CC1 | 7.10
COc1ccc(CN(c2cc3oc(-c4ccc(F)cc4)c(-c4nc(C)c(C)[nH]4)c3cc2C2CC2)S(C)(=O)=O)cc1 | 5.35
CC(C)CCN(c1cc2oc(-c3ccc(F)cc3)c(-c3nccc(=O)[nH]3)c2cc1C1CC1)S(C)(=O)=O | 6.10
CCCCN(c1cc2oc(-c3ccc(F)cc3)c(-c3ncc[nH]3)c2cc1C1CC1)S(C)(=O)=O | 7.77
CS(=O)(=O)N(CCCC(=O)N1CCOCC1)c1cc2oc(-c3ccc(F)cc3)c(-c3ncc[nH]3)c2cc1C1CC1 | 7.26
CC(C)(C#N)CCCCN(c1cc2oc(-c3ccc(F)cc3)c(C3=NOCCN3)c2cc1C1CC1)S(C)(=O)=O | 7.48
CS(=O)(=O)N(CCC1CCCCC1)c1cc2oc(-c3ccc(F)cc3)c(-c3ncc[nH]3)c2cc1C1CC1 | 7.34
CS(=O)(=O)N(CCOc1ccccc1)c1cc2oc(-c3ccc(F)cc3)c(-c3ncc[nH]3)c2cc1C1CC1 | 7.60
CS(=O)(=O)N(CCC1CCS(=O)(=O)C1)c1cc2oc(-c3ccc(F)cc3)c(C3=NOCN3)c2cc1C1CC1 (centres unmarked) | 8.05
CC(C)CCN(c1cc2oc(-c3ccc(F)cc3)c(C3=NOC(C)(C)N3)c2cc1C1CC1)S(C)(=O)=O | 5.44
CC(C)(O)C(=O)CCN(c1cc2oc(-c3ccc(F)cc3)c(-c3ncc[nH]3)c2cc1C1CC1)S(C)(=O)=O | 7.72
CS(=O)(=O)N(CCCCO)c1cc2oc(-c3ccc(F)cc3)c(C3=NOCCN3)c2cc1C1CC1 | 7.57
COc1ccc(-c2nn3ccc(-c4cc(C(=O)NC5(c6ccccc6)CC5)ccc4C)cc3c2C2=NOCCN2)cc1 | 6.82
CS(=O)(=O)N(CCCC#N)c1cc2oc(-c3ccc(F)cc3)c(C3=NOCCN3)c2cc1C1CC1 | 7.34
CS(=O)(=O)N(Cc1cnc(-c2ccc3[nH]ccc3c2)s1)c1cc2oc(-c3ccc(F)cc3)c(-c3ncc[nH]3)c2cc1C1CC1 | 8.15
CC[S+]([O-])CCN(c1cc2oc(-c3ccc(F)cc3)c(C3=NOCCN3)c2cc1C1CC1)S(C)(=O)=O (centres unmarked) | 6.78
Cn1ccc2cc(-c3ncc(CN(c4ccc5c(-c6ncc[nH]6)c(-c6ccccc6)oc5c4)S(C)(=O)=O)s3)ccc21 | 7.82
CS(=O)(=O)N(CCCc1noc(=S)[nH]1)c1cc2oc(-c3ccc(F)cc3)c(C3=NOCCN3)c2cc1C1CC1 | 7.41
CCCN(c1cc2oc(-c3ccc(F)cc3)c(-c3ncc[nH]3)c2cc1C1CC1)S(C)(=O)=O | 7.54
CS(=O)(=O)Nc1cc2oc(-c3ccc(F)cc3)c(-c3nc(Br)c(Br)[nH]3)c2cc1C1CC1 | 5.57
CS(=O)(=O)Nc1cc2oc(-c3ccc(F)cc3)c(C3=NOCN3)c2cc1C1CC1 | 7.07
CS(=O)(=O)N(CCCOc1ccccc1)c1cc2oc(-c3ccc(F)cc3)c(-c3ncc[nH]3)c2cc1C1CC1 | 7.62
CS(=O)(=O)N(CCC1CCOCC1)c1cc2oc(-c3ccc(F)cc3)c(-c3ncc[nH]3)c2cc1C1CC1 | 7.64

# credit: patent US20160355530A1
